Biological target: T1, recombinant human SOST (rhSOST) (human, UniProt Q9BQB4 24-213)
T1 construct: Treated as one molecule; also called recombinant human SOST protein; human sclerostin
T1 sequence: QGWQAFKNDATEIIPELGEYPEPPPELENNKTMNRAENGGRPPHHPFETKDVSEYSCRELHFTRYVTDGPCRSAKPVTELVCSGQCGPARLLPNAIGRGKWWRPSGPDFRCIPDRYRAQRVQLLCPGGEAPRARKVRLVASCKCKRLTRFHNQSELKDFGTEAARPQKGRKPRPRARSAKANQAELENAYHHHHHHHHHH
Assay: SPR Biacore T200, IgG captured via anti-human Fc, rhSOST analyte, 37 C
Each record here notes measured koff.
Could you give me the number in s⁻¹? Just the number is fine.

INSERT INTO assay_data (binder, quantity_kind, reading_unit, readout_number) VALUES
  ('DM20 (antibody, V domains shown, also called mH1/wt) VH: EVQLLESGGGLVQPGGSLRLSCAASGHTFSDYWMQWVRQAPGKGLEWIGAIYPGDGDTRYNQKFKDRFTISRDNSKNTLYLQMNSLRAEDTAVYYCARSMDYWGQGTLVTVSS VL: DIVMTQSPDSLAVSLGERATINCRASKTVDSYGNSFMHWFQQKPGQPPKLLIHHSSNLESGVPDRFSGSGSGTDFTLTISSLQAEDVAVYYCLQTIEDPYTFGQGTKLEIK', 'koff', 's⁻¹', 0.00012),
  ('DM30 (antibody, V domains shown, also called mH10/mL3) VH: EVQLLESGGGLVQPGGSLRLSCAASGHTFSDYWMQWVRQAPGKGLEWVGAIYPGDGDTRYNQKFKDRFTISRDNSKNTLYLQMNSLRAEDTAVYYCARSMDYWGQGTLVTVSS VL: DIVMTQSPDSLAVSLGERATINCRASKTVDSYGNSFMHWYQQKPGQPPKLLIYHSSNLESGVPDRFSGSGSGTDFTLTISSLQAEDVAVYYCLQTIEDPYTFGQGTKLEIK', 'koff', 's⁻¹', 0.000239);

Switching to the query record.
Bench note: what koff did DM16 (antibody, V domains shown, also called wt/mL5) VH: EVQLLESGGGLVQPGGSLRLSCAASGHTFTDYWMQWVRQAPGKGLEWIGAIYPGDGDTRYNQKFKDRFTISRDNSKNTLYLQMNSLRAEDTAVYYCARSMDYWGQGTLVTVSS VL: DIVMTQSPDSLAVSLGERATINCRASKTVDSYGNSFMHWFQQKPGQPPKLLIHHSSNLESGVPDRFSGSGSGTDFTLTISSLQAEDVAVYYCLQTIEDHYTFGQGTKLEIK show? 0.000817

Numbers sourced from patent WO2015087187A1.
